# measured_on: UniProtKB P03956
# Sequence (P03956 100-469, species assumed): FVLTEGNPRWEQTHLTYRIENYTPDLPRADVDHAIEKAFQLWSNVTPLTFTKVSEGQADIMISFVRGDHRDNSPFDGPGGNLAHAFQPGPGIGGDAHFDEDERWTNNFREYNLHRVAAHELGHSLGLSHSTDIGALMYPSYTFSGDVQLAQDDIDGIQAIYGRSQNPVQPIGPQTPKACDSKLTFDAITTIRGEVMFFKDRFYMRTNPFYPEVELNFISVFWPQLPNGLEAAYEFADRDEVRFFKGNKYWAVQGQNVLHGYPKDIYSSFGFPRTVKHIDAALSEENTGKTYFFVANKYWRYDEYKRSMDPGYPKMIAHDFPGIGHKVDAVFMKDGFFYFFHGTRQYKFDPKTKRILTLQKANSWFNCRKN
# procedure_text: MMP-1 inhibitory action (Type I collagen Activity Measurement kit, FITC-labeled collagen type I)
# Type: biochemical
# condition_info: MMP-1 inhibitory action, FITC-labeled collagen type I, 37° C. for 3 hr; read-out: IC50 MMP1 (Experimental Example 2)
property_label: IC50

Exercise: # lookup: IC50 of O=C(O)C1(NS(=O)(=O)c2ccc(Cl)s2)CC1c1ccccc1 (stereo not shown) [Example 2-82]
Key: ≥ 10 µM

Exercise: Sample CC(=O)c1ccc(S(=O)(=O)NC2(C(=O)O)CC2c2ccccc2)cc1 (stereo not shown) [Example 2-80] — what was its IC50?
Key: ≥ 10 µM

Exercise: Any idea what its IC50 is? The compound is O=C1O[C@@H]([C@H]2C[C@@]2(NS(=O)(=O)c2ccc(-c3ccc(Cl)cc3)s2)C(=O)O)CN1Cc1ccccc1 [Example 2-139]
Key: ≥ 10 µM
